Documented Kd across a set of binders
Target: T1, His-tagged human HER3 (human, UniProt P21860 20-643)
T1 construct: Antigen of the BLI experiments and of the HER2-Fc dimerisation ELISA; also called HER3 His; not shown: His tag
Assay: BLI (Octet QK384), antibody on anti-human IgG capture tips, His-tagged human HER3 in solution, global one-site fit

{"Binder": "anti-HER3 clone 4-35-B4 IgG1 (antibody, V domains shown, Human-mouse chimeric IgG1/kappa) VH: EVQLQQSGAELVKPGASVKLSCTASGFNIKDTYIHWVKQRPDQGLEWIGKIIDPANGNTNYDPKFQGKATITADTSSNTAYLQLSSLSSEDTAVYFCARGLHWGQGTTLTVSS VL: DIVLTQSPASLAVSLGQRATISCRASKSVSTSGYSYMHWYQQKPGQPPKLLIYLASNLESGVPARFSGSGSGTDFTLNIHPVEEEDAATYYCQHSRELPYTFGGGTKLEIKR", "Kd / nM": 50.3}
{"Binder": "anti-HER3 clone 10D1_c85o2 IgG1 (antibody, V domains shown, Humanised 10D1 variant, IgG1/kappa; also called 10D1_c8502) VH: DVQLQEWGAGLLKPSETLSLTCAVTGYSITSGYSWHWIRQFPGKGLEWIGSIRYSGGTNYNPSLKSRITISRDTSKNQFSLKLGSVTAADTAVYFCARGTTAPRYPFDYWGQGTLVTVSS VL: DIVMTQSPSSLSASVGDRVTITCKASQIVGSNVAWYQQKPGKSPKPLIYSARYQYSGVPFRFSGSGSGTDFTLTISSLQPEDVATYYCQQYSSHPLTFGPGTKVEIKR", "Kd / nM": 17.3}
